Sourced from paper PMC3629139

molecular target: photosystem II (PSII) D1 protein (Chlamydomonas reinhardtii, UniProt P07753, M172L); construct: full-length D1 from intronless psbA in the chloroplast, assembled in native PSII (with D2 and other subunits) in living algal cells; D1 mutants by ep-PCR of Ala153-Ala294 region and biolistic transformation of Del1; test: chlorophyll a fluorescence induction (OJIP), inhibition of 1-VJ (QA to QB electron transfer) in living algal cells; details: read-out: Atrazine / I50×10^-7 M / (±SE)
ASSAY_READOUT: IC50 (nM)
State the answer as a number, implicitly in nM.

Inquiry: Quick one: IC50 of `CCNc1nc(Cl)nc(NC(C)C)n1` ?
Reply text: 220
